The reported numbers originate from patent US20200317779A1.

# system: recombinant human CD3ε/δ heterodimer (human) (UniProt P07766)
# Sequence (P07766 23-126, stated change not applied, chain 1 of 2): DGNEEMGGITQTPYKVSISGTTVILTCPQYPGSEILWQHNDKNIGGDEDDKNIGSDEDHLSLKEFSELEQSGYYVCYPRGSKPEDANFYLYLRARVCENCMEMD
# Sequence (P04234 22-105, stated change not applied, chain 2 of 2, further chain): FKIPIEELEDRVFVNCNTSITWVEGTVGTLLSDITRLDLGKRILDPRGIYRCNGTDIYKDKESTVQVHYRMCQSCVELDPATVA
# run description: BLI (Octet), antigen on anti-Penta His sensor, antibody 50 nM
measured property: koff (s⁻¹)
Number only, in s⁻¹; omit the unit.

Some binders with recorded koff:
binder	measured property	assay value
C16 (antibody, human IgG1, lambda, L234A L235A, V domains shown) VH: EVQLVESGGGLVQPGGSLKLSCAASGFTFNTYAMNWVRQASGKGLEWVGRIRSKYNNYATYYADSVKDRFTISRDDSQSTAYLQMNSLKTEDTAVYYCVRHGNFGNSYVSWFAYWGQGTLVTVSS VL: QAVVTQEPSLTVSPGGTVTLTCRSSTGAVTTSNYANWVQQKPGQAPRGLIGGTNKRAPWTPARFSGSLLGDKAALTLSGAQPEDEAEYYCALWYSNLWVFGGGTKLTVLG	koff	0.000112
C08 (antibody, human IgG1, lambda, L234A L235A, V domains shown) VH: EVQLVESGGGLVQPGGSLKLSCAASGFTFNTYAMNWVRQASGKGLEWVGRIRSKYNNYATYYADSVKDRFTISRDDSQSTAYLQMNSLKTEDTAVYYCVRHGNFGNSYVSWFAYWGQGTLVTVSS VL: QAVVTQEPSLTVSPGGTVTLTCRSSTGAVTTSNYANWFQQKPGQAPRGLIGGTNKRAPWTPARFSGSLLGDKAALTLSGAQPEDEAEYYCALWYSNLWVFGGGTKLTVLG	koff	0.00317
C15 (antibody, human IgG1, lambda, L234A L235A, V domains shown) VH: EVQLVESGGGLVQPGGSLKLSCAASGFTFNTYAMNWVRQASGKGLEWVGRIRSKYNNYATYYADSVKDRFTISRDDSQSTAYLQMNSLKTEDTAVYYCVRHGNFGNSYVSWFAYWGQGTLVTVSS VL: QAVVTQEPSLTVSPGGTVTLTCRSSTGAVTTSNYANWVQQKPGQAPRGLIGGTNKRAPWTPARFSGSLLGGKAALTLSGAQPEDEAEYYCALWYSNLWVFGGGTKLTVLG	koff	0.000162
A15 (antibody, human IgG1, lambda, L234A L235A, V domains shown) VH: EVQLVESGGGLVQPGGSLKLSCAASGFTFNTYAMNWVRQASGKGLEWVGRIRSKYNNYATYYADSVKDRFTISRDDSKNTAYLQMNSLKTEDTAVYYCVRHGNFGNSYVSWFAYWGQGTLVTVSS VL: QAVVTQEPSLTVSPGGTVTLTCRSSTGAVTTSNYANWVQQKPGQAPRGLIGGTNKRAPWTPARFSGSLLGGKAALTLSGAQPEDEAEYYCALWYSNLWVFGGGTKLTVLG	koff	9.58e-05

The recorded koff for A08 (antibody, human IgG1, lambda, L234A L235A, V domains shown) VH: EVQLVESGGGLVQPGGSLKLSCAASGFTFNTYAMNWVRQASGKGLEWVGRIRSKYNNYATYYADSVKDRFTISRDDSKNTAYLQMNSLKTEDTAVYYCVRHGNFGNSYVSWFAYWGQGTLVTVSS VL: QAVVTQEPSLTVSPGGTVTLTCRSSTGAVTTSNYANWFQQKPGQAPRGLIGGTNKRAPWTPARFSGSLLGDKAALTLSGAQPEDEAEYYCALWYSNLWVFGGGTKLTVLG is 0.00226

The recorded koff for E16 (antibody, human IgG1, lambda, L234A L235A, V domains shown) VH: EVQLVESGGGLVQPGGSLKLSCAASGFTFNTYAMNWVRQASGKGLEWVARIRSKYNNYATYYADSVKDRFTISRDDSKNTAYLQMNSLKTEDTAVYYCVRHGNFGNSYVSWFAYWGQGTLVTVSS VL: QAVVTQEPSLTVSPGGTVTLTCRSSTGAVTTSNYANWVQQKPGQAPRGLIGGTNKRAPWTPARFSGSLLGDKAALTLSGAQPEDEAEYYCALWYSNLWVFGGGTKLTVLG is 0.000284

The recorded koff for F15 (antibody, human IgG1, lambda, L234A L235A, V domains shown) VH: EVQLVESGGGLVQPGGSLKLSCAASGFTFNTYAMNWVRQASGKGLEWVARIRSKYNNYATYYADSVKDRFTISRDDSKNTLYLQMNSLKTEDTAVYYCVRHGNFGNSYVSWFAYWGQGTLVTVSS VL: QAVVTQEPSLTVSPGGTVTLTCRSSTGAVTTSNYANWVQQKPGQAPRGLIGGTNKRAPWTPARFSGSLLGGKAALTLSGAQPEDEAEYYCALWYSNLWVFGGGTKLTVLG is 0.000206

The recorded koff for H16 (antibody, human IgG1, lambda, L234A L235A, V domains shown) VH: EVQLVESGGGLVQPGGSLKLSCAASGFTFNTYAMNWVRQASGKGLEWVARIRSKYNNYATYYADSVKDRFTISRDDSQSTLYLQMNSLKTEDTAVYYCVRHGNFGNSYVSWFAYWGQGTLVTVSS VL: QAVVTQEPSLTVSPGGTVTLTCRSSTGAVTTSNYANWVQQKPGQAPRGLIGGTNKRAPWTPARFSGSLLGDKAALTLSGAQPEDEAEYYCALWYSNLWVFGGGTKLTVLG is 0.00012

The recorded koff for B15 (antibody, human IgG1, lambda, L234A L235A, V domains shown) VH: EVQLVESGGGLVQPGGSLKLSCAASGFTFNTYAMNWVRQASGKGLEWVGRIRSKYNNYATYYADSVKDRFTISRDDSKNTLYLQMNSLKTEDTAVYYCVRHGNFGNSYVSWFAYWGQGTLVTVSS VL: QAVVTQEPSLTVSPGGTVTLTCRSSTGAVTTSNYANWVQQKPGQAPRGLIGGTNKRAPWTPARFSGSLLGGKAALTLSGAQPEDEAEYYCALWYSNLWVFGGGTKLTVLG is 0.000193

The recorded koff for D08 (antibody, human IgG1, lambda, L234A L235A, V domains shown) VH: EVQLVESGGGLVQPGGSLKLSCAASGFTFNTYAMNWVRQASGKGLEWVGRIRSKYNNYATYYADSVKDRFTISRDDSQSTLYLQMNSLKTEDTAVYYCVRHGNFGNSYVSWFAYWGQGTLVTVSS VL: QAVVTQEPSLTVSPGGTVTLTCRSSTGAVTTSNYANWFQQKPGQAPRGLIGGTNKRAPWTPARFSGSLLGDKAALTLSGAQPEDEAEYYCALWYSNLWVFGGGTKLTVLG is 0.00287
